assayed system: human ether-à-go-go-related gene (hERG) potassium channel (human, UniProt Q12809);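 note: peak tail current of the secondary pulse compared with the same well before compound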
Sequence (Q12809 whole entry, looked up): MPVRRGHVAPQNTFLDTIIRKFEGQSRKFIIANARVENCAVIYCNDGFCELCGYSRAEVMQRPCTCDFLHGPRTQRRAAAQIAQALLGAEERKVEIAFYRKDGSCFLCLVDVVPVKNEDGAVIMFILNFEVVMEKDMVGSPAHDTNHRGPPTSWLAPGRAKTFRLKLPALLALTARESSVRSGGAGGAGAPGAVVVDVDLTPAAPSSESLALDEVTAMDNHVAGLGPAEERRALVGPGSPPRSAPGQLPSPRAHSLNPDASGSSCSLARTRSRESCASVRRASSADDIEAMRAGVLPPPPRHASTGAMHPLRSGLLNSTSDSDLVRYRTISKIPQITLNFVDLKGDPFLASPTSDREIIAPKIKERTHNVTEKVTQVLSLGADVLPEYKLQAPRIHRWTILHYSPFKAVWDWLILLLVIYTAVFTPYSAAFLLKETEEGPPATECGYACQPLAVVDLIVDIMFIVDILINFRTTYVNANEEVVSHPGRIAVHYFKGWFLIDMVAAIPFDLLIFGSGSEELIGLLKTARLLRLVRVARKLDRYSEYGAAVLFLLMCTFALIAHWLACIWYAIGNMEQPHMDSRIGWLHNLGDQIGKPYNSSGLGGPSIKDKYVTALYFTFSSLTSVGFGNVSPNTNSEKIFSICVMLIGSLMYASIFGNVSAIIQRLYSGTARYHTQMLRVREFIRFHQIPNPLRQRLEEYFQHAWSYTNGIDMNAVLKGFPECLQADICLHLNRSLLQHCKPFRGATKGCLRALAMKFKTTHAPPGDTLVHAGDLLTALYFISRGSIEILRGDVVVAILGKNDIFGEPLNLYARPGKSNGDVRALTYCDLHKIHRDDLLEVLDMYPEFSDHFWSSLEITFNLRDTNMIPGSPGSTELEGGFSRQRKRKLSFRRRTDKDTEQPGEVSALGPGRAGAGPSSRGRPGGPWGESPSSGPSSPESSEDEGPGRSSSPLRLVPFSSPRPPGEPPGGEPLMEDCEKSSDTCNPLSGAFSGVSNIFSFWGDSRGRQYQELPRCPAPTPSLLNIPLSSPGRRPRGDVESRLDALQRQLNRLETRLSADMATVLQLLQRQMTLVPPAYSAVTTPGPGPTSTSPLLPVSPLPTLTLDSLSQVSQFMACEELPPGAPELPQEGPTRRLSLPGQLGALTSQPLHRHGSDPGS
assay: primary screen, population patch clamp on CHO cells stably expressing hERG; higher = less effect of the substance
Among all 310,000 compounds or so, about 14,000 (4.5%) showed an effect of 50% or more. The effect is printed as a negative number. The full list was thinned out, with strong results kept by preference.
Entries and their hERG current change (%, negative = inhibition) at 10uM values follow.
Answer in %, number only, no unit symbol.

Record excerpt, results attached:
                                   compound                            assayed_system  experimental_value
0  CN1CCN(C(=O)c2cnn(-c3ccccc3)c2NC(=O)c2ccccc2)CC1  human ether-à-go-go-related gene (hERG) potassium channel (human, UniProt Q12809)               -17.8
1  NC(=O)c1ccsc1NC(=O)COC(=O)C1CCCN1C(=O)c1cccs1 (stereo not drawn)  human ether-à-go-go-related gene (hERG) potassium channel (human, UniProt Q12809)                 -63

Consider "O=C(c1cc(=O)[nH]c2ccccc12)N1CCc2ccccc2C1" . Its measured hERG current change (%, negative = inhibition) at 10uM is 11

Consider "O=C1CN(C(=S)NC(=O)c2ccccc2[N+](=O)[O-])CCN1" . Its measured hERG current change (%, negative = inhibition) at 10uM is 16.9

Consider "c1ccc(CCCc2nc(-c3ccccn3)no2)cc1" . Its measured hERG current change (%, negative = inhibition) at 10uM is -7.53

Consider "CCOc1ccc(-n2c(C)cc(/C=C3/C(=N)N4C(=NC3=O)SN=C4S(C)(=O)=O)c2C)cc1" . Its measured hERG current change (%, negative = inhibition) at 10uM is -53.4

Consider "CC(C)CCn1nnnc1CN1CCN(C(=O)c2ccco2)CC1.Cl" . Its measured hERG current change (%, negative = inhibition) at 10uM is 16.8

Consider "COc1ccccc1NC(=O)COc1coc(CN2CCN(c3ccccc3)CC2)cc1=O" . Its measured hERG current change (%, negative = inhibition) at 10uM is -60

Consider "Cc1ccc(S(=O)(=O)NCc2ccco2)c(C)c1C" . Its measured hERG current change (%, negative = inhibition) at 10uM is -4.4

Consider "O=C(COc1coc(CN2CCN(c3ccccc3)CC2)cc1=O)NC1CCCCC1" . Its measured hERG current change (%, negative = inhibition) at 10uM is -46.1

Consider "COC(=O)c1cc(S(=O)(=O)NCc2cccs2)c[nH]1" . Its measured hERG current change (%, negative = inhibition) at 10uM is 19.1

Consider "CC(C)NC(=S)N/N=C1\CCCc2ccccc21" . Its measured hERG current change (%, negative = inhibition) at 10uM is 10.4

* * *

assayed system: human ether-à-go-go-related gene (hERG) potassium channel (human);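 note: peak tail current of the secondary pulse compared with the same well before compound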
assay: primary screen, population patch clamp on CHO cells stably expressing hERG; higher = less effect of the substance
The campaign covered roughly 310,000 compounds. About 14,000 (4.5%) showed an effect of 50% or more. The effect is printed as a negative number. The list comes from a sample in which strong results are over-represented; it also holds close analogues and randomly drawn compounds.
property measured: hERG current change (%, negative = inhibition) at 10uM (%)
Answer in %, number only, no unit symbol.

Record excerpt, results attached:
>>> df
                                   compound  experimental_value
0  O=C(Nc1ccccc1N1CCCC1)c1ccc(Cl)c(S(=O)(=O)N2CCOCC2)c1               -41.4
1  COc1ccc(N2CCN(S(=O)(=O)c3ccc4c(c3)N(C(C)=O)CCO4)CC2)cc1               -18.4
2  O=C(NCC(c1ccco1)N1CCCC1)c1cccc(NS(=O)(=O)c2ccccc2)c1 (centres unmarked)                -5.9

Observed hERG current change (%, negative = inhibition) at 10uM, human ether-à-go-go-related gene (hERG) potassium channel (human), CCCC1(c2ccccc2)NC(=O)N(CC(=O)N(C)Cc2c(F)cccc2Cl)C1=O (centres unmarked) : -2.69

Observed hERG current change (%, negative = inhibition) at 10uM, human ether-à-go-go-related gene (hERG) potassium channel (human), "CC(=O)Nc1ccc(NC2=CC(=O)c3ccccc3C2=O)cc1" : 11.6

Observed hERG current change (%, negative = inhibition) at 10uM, human ether-à-go-go-related gene (hERG) potassium channel (human), "CCc1cc(C(=O)NNC(=O)CCN2CCN(c3ccccc3)CC2)sc1C" : 11.8
